system.under.test: FGF-R1 intracellular kinase domain (Homo sapiens, UniProt P11362, C488A/C584S/L457V)
Construct: starting from the endogenous methionine residue 456 to glutamate 766; made in house; host or cells: baculovirus expression system
Sequence (P11362 456-766 L457V/C488A/C584S): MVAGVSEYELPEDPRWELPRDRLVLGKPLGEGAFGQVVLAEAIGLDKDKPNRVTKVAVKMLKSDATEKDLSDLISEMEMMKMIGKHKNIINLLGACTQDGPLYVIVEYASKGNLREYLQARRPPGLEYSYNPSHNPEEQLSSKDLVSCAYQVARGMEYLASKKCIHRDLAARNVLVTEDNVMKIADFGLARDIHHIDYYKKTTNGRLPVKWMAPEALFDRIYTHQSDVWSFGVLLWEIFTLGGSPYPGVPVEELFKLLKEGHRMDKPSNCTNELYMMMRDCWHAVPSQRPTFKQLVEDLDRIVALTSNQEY
measurement.notes: FGF-R spectrophotometric assay;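 note: coupled PK/LDH enzyme assay: ADP from kinase phosphoryl transfer drives NADH oxidation, read as absorbance decrease at 340 nm, with 2 mM ATP and poly(E4Y1) substrate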
Type: biochemical
condition.parameters: @ 1 μM; read-out: FGF-P percent inhibition
Quick list: inhibition at 1 µM per entry.
Reply with just the number (in %).

INSERT INTO results (molecule, system_under_test, obs_value) VALUES
  ('COc1cc(NC(=O)c2ccc(F)c(OCc3cc(Nc4ccc(OC)nc4)n[nH]3)c2)cc(C(F)(F)F)c1 [Example J-3]', 'FGF-R1 intracellular kinase domain (Homo sapiens, UniProt P11362, C488A/C584S/L457V)', 54),
  ('CC(C)(C)c1cc(C(=O)Nc2cccc(OCc3cccnc3)c2)ccc1O [Example X-4]', 'FGF-R1 intracellular kinase domain (Homo sapiens, UniProt P11362, C488A/C584S/L457V)', 11),
  ('CC(=O)Nc1ccc(COc2cccc(C(=O)Nc3ccc4nc(C)ccc4c3)c2)cn1 [Example N-1]', 'FGF-R1 intracellular kinase domain (Homo sapiens, UniProt P11362, C488A/C584S/L457V)', 12);

Next up:
IN: # returns recorded inhibition at 1 µM (system: FGF-R1 intracellular kinase domain (Homo sapiens, UniProt P11362, C488A/C584S/L457V)) for O=C(Nc1ccc(N2CCOCC2)c(C(F)(F)F)c1)c1ccc(F)c(OCc2cccnc2)c1 [Example R-12]
OUT: 62
